Listed binders paired with reported peptide exchange yield
Target: T1, HLA-A*02:01 (human)
T1 construct: captured on streptavidin plates; also called peptide-receptive MHC molecules
Test: UV peptide exchange ELISA (anti-b2m); yield grade: + >10%, ++ >20%, +++ >50, ++++ >75%
Excerpt: Candidate peptides for T cell based therapies according to the present invention were further tested for their MHC binding capacity (affinity). The individual peptide-MHC complexes were produced by UV-ligand exchange, where a UV-sensitive peptide is cleaved upon UV-irradiation, and exchanged with the peptide of interest as analyzed. Only peptide candidates that can effectively bind and stabilize the peptide-receptive MHC molecules prevent dissociation of the MHC complexes. […]

ILDEPTNHL	20 to 50%
FLGEPASYLYL	> 75%
YVDDFGVSV	50 to 75%
TVIRPLPGL	20 to 50%
TLKDIVQTV	50 to 75%
ALDDIIYRA	50 to 75%
GILSFLPVL	50 to 75%
FLDHEMVFL	> 75%
ALMDTDGSGKLNL	50 to 75%
SLDAVMPHL	50 to 75%

// switching to the query binder
The recorded peptide exchange yield for VLYSLVSKI is 50 to 75%
